Molecular target: 5-hydroxytryptamine receptor 7 (Homo sapiens, UniProt P34969)
Sequence (P34969 whole entry): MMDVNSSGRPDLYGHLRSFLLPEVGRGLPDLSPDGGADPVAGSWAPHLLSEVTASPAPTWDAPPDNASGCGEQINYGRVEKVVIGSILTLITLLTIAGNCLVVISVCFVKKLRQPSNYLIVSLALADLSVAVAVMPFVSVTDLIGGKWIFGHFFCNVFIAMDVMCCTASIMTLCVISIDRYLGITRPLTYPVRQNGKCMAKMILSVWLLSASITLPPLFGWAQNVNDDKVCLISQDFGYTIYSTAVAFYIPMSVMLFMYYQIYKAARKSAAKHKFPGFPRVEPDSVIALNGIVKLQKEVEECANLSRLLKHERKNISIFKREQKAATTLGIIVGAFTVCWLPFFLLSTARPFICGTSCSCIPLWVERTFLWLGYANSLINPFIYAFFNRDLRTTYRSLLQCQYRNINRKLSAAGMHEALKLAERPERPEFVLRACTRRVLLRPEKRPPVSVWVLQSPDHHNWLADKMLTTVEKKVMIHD
Test: Displacement of [3H]HT from human 5-HT7 receptor expressed in CHO cells by liquid scintillation counting
Assay type: cell-based
Observed property: Ki (nM)
// return numeric value only (unit: nM, not printed)

Example cases with answers are listed next.
Q: Entry Cc1cccc2c1-c1ccc(C(=O)N=C(N)N)cc1C2O.Cl (stereo not given) has what Ki?
A: 14

Q: Similarly, CC(=O)NC1c2ccccc2-c2ccc(C(=O)N=C(N)N)cc21 (stereo not given) ?
A: 180

Q: Similarly, NC(N)=NC(=O)c1ccc2c(c1)C(O)c1cccc(CO)c1-2 (stereo not given) ?
A: 41

More entries:
Q: Entry COCc1cccc2c1-c1ccc(C(=O)N=C(N)N)cc1C2O (stereo not given) has what Ki?
A: 50

Q: Similarly, N=C(N)NC(=O)c1ccc2c(c1)C(F)c1ccccc1-2 (stereo not given) ?
A: 57
